What IC50 was measured for each of the following?
target: FR-α (Homo sapiens, UniProt P15328); construct: endogenous in cells; host or cells: KB cells; experiment: Displacement assay with [^3H]folic acid using KB cells; format: binding; conditions: KB cells, displacement of [^3H]folic acid, n = 3
Sequence (P15328 25-234): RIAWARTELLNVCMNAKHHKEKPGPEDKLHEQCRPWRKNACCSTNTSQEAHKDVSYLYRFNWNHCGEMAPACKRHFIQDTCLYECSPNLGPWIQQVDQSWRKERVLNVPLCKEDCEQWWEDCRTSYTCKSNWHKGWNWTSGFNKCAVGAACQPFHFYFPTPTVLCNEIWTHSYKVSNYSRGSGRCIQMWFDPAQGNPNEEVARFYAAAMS
Answers are plain numbers, in nM.

Below, 2 molecules whose answers are already recorded.
>  <molecule>
CN1c2c([nH]c(N)nc2=O)NC[C@@H]1CNc1ccc(C(=O)N[C@@H](CCC(=O)O)C(=O)O)cc1 [Compound 6S-5-MTHF, 6S-5-MTHF, reference compound]

>  <measurement>
20.6

$$$$
>  <molecule>
CN1c2c(nc(N)[nH]c2=O)NC[C@H]1CNc1ccc(C(=O)N[C@@H](CCC(=O)O)C(=O)O)cc1 [Compound 6R-5-MTHF, 6R-5-MTHF, reference compound]

>  <measurement>
25.8

$$$$

Lab note: next molecule to report on.
Lookup: Name the recorded IC50 for Nc1nc2ncc(CNc3ccc(C(=O)N[C@@H](CCC(=O)O)C(=O)O)c(F)n3)nc2c(=O)[nH]1 [3′-aza-2′-[^18F]fluorofolic acid, reference compound] .
Found: 1.4
